# maps each entry to its growth
Tested on: 786-0 renal
Assay: NCI-60 one-dose screen, 48 h (100 = growth as untreated, 0 = no growth, -100 = all killed)
Conditions: 10 µM unless noted
Description: Cells are grown in 96 well plates and exposed to the test compound for 48 hours. Compounds are tested at a single concentration, which is 10^-5 M for most compounds. The reported endpoint is percent growth (GI% or GIPRCNT), where numbers from 0 - 100% represent growth inhibition, and numbers from -100% - 0 represent cell death. For example, a value of 40 represents 60% growth inhibition. A value of 0 means no net growth occurred over the course of the experiment. […]
Compounds without any hit were thinned out: in the full panel of roughly 83,000, 20% have a hit.
Give the quantity in %, number only.

Write growth of COC1CCN(Cc2ccc3c(NNC(=O)c4cnccn4)nc4cc(F)ccc4n23)C1 (centres undefined) ; system used: 786-0 renal
12.7

Write growth of CS(=O)(=O)c1ccc(-c2nc3ccccn3c2/C=N/Nc2nc(-c3ccc(Cl)cc3)cs2)cc1 ; system used: 786-0 renal
79.8

Write growth of CS(=O)(=O)Nc1ccc(-c2nn(-c3ccc(S(C)(=O)=O)cc3)cc2/C=C/C(=O)c2ccc(NC(=O)CO[N+](=O)[O-])cc2)cc1 ; system used: 786-0 renal
102

Write growth of NS(=O)(=O)c1cccc(Nc2nc(SCC(=O)c3ccc([N+](=O)[O-])cc3)nc3ccccc23)c1 ; system used: 786-0 renal
44.6

Write growth of CN(C)CCCNc1c2ccc(Cl)cc2nc2c1oc1ccc(Cl)cc12 ; system used: 786-0 renal
-85.3

Write growth of O=C(Nc1nc2ccc(O)cc2s1)c1cccc(C(F)(F)F)c1 ; system used: 786-0 renal
77.1

====

system: SNB-19 CNS; experiment: NCI-60 one-dose screen, 48 h (100 = growth as untreated, 0 = no growth, -100 = all killed); settings: 10 µM unless noted
This is part of a sample that, as a whole, favours compounds with a hit. Of some 83,000 tested, about 20% had one in any assay.
Would you mind sorting the entries by growth according to these classes? band A (below 70%), band B (70% to below 90%), band C (90% or more)

• COc1cc2nc(-c3ccc(Cl)cc3)cc(OCCCNCC3CCCO3)c2cc1OC (centres undefined) = band B

Assign a bin to COC(=O)C(Cc1ccccc1)NS(=O)(=O)/N=C1\NC(=O)NC1=C(Cl)Cl (centres undefined)
band C

====

test system: SK-MEL-5 melanoma; assay: NCI-60 one-dose screen, 48 h (100 = growth as untreated, 0 = no growth, -100 = all killed); details: 10 µM unless noted
The panel holds about 83,000 compounds, 20% with a hit somewhere; the sample as a whole holds those more often.
Would you mind sorting the entries by growth according to these classes? bottom bin = under 60%, middle bin = from 60% up to 90%, top bin = 90% and over

Examples from the recorded data:
• Cn1ccnc1C(=O)/C=C/c1ccc(NC(=O)Nc2ccccc2)cc1 = middle bin
• Cc1ccc(C(=O)Nc2cccc(C(F)(F)F)c2)cc1Nc1nc(-c2cnccn2)nc2c1cnn2C = bottom bin

Assign a bin to CN(C)CCCNc1c2ccccc2nc2c1oc1ccc(Cl)cc12
bottom bin

Assign a bin to Cc1c(NC(=O)CSc2nc3sc4c(c3c(=O)n2-c2ccc(Cl)cc2)CCCC4)c(=O)n(-c2ccccc2)n1C
middle bin

Assign a bin to Cc1cccc2sc(/N=C(\N)C(Cl)(Cl)Cl)nc12
top bin

Assign a bin to O=C(N/N=C/c1ccc([N+](=O)[O-])s1)c1[nH]c2ccc(Br)cc2c1-c1ccccc1
bottom bin

Assign a bin to CNC(=O)c1cc(-c2ccc(NC(=O)Nc3ccc(N4CCOCC4)c(C(F)(F)F)c3)cc2)nc2cccnc12
middle bin

Assign a bin to N=C1CC(=O)NN1C(=O)CSc1nc2sc3c(c2c(=O)n1-c1ccc(Cl)cc1)CCCC3
top bin
